# reported K; entries follow
tested on: Nucleic Acid; assay: Compound was evaluated for association constant in the calf thymus DNA; format: functional; conditions: Bos taurus
REPORTED_PROPERTY: K

[[record]]
smiles_string = "Cc1cc2occc2c2oc(=O)ccc12"
assay_result = 1560

[[record]]
smiles_string = "Cc1cc2c(cc(C)c3ccc(=O)oc32)o1"
assay_result = 1750

[[record]]
smiles_string = "Cc1cc(=O)oc2c1ccc1occc12"
assay_result = 1400

[[record]]
smiles_string = "Cc1cc2c(ccc3ccc(=O)oc32)o1"
assay_result = 1200

[[record]]
smiles_string = "O=c1ccc2ccc3occc3c2o1"
assay_result = 560


###

experiment: Water solubility (solubility in mol/L); format: ADME; details: read-out: S
Collected solubility values appear next to each entry.
REPORTED_PROPERTY: solubility (µg/mL)

[[record]]
molecule = "Cc1cc2c(ccc3ccc(=O)oc32)o1"
assay_result = 12

[[record]]
molecule = "Cc1cc(=O)oc2c1ccc1occc12"
assay_result = 4

[[record]]
molecule = "Cc1cc2c(cc(C)c3ccc(=O)oc32)o1"
assay_result = 3

[[record]]
molecule = "O=c1ccc2ccc3occc3c2o1 [ANGELICIN]"
assay_result = 20

[[record]]
molecule = "Cc1cc2occc2c2oc(=O)ccc12"
assay_result = 4.5

